test system: Mycobacterium avium; assay: Antimycobacterial activity against Mycobacterium avium My 330/80 after 14 days by micromethod; assay type: functional; details: My 330/80, 336 h
A collection of compounds and their measured MIC
Could you give me the number in µM? Just the number is fine.

Sample answers from the record:
- O=C(Nc1cc(C(F)(F)F)cc(C(F)(F)F)c1)c1ccc(Br)cc1O: 32
- O=C(Nc1ccc(Cl)c(Cl)c1)c1ccc(Cl)cc1O: 16

Reported Mycobacterium avium MIC for item O=C(Nc1ccc(C(F)(F)F)cc1)c1ccc(Br)cc1O was 8

Reported Mycobacterium avium MIC for item O=C(Nc1cc(C(F)(F)F)cc(C(F)(F)F)c1)c1cc(Br)c(Cl)cc1O was 16

Data origin, for the record: ChEMBL document CHEMBL3877325
